- Measurement protocol: Half life in ICR (CD-1) mouse plasma by HPLC analysis
- Format: ADME, cell-free
Recorded metric: half-life (min)
Value expressed in min; do not type the unit.

CC(=O)O[C@@H](C#N)[C@H](C[C@@H]1CCCNC1=O)NC(=O)[C@H](Cc1ccc(F)cc1)NC(=O)c1cc(C)on1 42
CCCNC(=O)O[C@@H](C#N)[C@H](C[C@@H]1CCCNC1=O)NC(=O)[C@H](Cc1ccc(F)cc1)NC(=O)c1cc(C)on1 12
Cc1cc(C(=O)N[C@@H](Cc2ccc(F)cc2)C(=O)N[C@@H](C[C@@H]2CCCNC2=O)[C@H](C#N)OC(=O)NC(C)C)no1 31

Consider the additional molecule presented here.
Kindly note the recorded half-life for Cc1cc(C(=O)N[C@@H](Cc2ccc(F)cc2)C(=O)N[C@@H](C[C@@H]2CCCNC2=O)[C@@H](O)C#N)no1 , which is 7

###

- Target entity: Genome polyprotein (Enterovirus A71)
- Sequence (A0A1D8D5K2 whole entry): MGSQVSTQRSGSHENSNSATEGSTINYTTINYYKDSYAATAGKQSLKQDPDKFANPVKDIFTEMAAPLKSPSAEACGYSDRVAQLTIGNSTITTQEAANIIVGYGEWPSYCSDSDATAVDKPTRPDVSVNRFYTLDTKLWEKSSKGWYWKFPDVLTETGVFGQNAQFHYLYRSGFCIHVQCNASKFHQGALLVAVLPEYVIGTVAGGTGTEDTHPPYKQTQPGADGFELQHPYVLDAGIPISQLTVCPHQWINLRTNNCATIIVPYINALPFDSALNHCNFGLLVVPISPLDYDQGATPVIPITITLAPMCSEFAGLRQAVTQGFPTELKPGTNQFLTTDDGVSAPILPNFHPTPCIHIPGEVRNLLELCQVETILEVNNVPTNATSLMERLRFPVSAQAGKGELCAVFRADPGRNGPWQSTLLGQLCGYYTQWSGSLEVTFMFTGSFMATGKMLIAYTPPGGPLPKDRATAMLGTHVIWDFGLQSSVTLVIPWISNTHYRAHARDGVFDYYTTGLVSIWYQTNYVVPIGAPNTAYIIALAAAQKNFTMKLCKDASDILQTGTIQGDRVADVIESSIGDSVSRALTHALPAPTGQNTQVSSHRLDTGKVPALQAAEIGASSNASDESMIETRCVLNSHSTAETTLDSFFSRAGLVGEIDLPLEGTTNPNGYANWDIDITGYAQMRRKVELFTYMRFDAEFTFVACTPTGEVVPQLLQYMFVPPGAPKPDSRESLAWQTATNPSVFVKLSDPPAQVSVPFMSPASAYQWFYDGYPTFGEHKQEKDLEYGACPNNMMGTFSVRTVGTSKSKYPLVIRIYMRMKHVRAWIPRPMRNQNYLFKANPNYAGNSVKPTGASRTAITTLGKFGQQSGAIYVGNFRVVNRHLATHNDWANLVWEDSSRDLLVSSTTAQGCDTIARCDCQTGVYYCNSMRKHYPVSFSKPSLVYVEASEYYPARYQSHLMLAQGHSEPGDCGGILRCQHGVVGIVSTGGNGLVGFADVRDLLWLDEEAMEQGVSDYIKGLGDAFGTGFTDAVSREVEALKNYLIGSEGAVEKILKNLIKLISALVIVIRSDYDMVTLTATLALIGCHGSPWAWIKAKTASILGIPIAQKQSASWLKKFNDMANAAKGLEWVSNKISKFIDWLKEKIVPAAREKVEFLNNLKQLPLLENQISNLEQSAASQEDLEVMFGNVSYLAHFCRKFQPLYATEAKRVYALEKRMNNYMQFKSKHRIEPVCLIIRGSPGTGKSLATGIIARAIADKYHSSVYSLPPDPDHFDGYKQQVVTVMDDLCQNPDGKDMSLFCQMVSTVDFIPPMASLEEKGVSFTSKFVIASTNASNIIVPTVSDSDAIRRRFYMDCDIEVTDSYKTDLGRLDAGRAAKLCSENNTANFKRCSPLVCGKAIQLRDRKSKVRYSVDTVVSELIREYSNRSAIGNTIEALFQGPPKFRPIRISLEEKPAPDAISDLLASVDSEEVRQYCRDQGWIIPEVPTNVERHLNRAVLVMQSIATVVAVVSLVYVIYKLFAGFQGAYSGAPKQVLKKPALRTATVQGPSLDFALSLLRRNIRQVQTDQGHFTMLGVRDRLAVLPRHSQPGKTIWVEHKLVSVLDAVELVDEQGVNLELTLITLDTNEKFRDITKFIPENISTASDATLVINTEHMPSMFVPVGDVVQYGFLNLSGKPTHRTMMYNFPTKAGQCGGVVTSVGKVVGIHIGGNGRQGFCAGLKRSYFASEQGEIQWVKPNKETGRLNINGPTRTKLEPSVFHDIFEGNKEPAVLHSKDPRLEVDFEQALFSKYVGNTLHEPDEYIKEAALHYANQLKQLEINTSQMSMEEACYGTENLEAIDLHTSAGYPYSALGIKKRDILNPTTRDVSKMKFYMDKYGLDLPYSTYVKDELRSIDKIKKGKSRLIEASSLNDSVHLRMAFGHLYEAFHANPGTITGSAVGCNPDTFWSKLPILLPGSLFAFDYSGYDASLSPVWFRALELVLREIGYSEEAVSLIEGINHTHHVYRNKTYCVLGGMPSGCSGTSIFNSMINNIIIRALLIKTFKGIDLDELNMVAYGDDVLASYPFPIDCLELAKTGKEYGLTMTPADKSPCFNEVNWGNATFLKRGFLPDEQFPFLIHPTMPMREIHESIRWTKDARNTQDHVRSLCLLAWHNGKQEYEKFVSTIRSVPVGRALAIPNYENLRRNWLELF
Reported Ki is given for each of the following compounds.
Value expressed in nM; do not type the unit.

Solved cases below.
CCCCNC(=O)O[C@@H](C#N)[C@H](C[C@@H]1CCCNC1=O)NC(=O)[C@H](Cc1ccc(F)cc1)NC(=O)c1cc(C)on1 450
CCCNC(=O)O[C@H](C#N)[C@H](C[C@@H]1CCCNC1=O)NC(=O)[C@H](Cc1ccc(F)cc1)NC(=O)c1cc(C)on1 183
Cc1cc(C(=O)N[C@@H](Cc2ccc(F)cc2)C(=O)N[C@@H](C[C@@H]2CCCNC2=O)[C@H]2OC(=O)N(C(C)C)C2=N)no1 33
Cc1cc(C(=O)N[C@@H](Cc2ccc(F)cc2)C(=O)N[C@@H](C[C@@H]2CCCNC2=O)[C@@H]2OC(=O)N(C(C)C)C2=N)no1 61
Cc1cc(C(=O)N[C@@H](Cc2ccc(F)cc2)C(=O)N[C@@H](C[C@@H]2CCCNC2=O)[C@@H](C#N)OC(=O)NC2CC2)no1 6210

Reported Ki (Genome polyprotein (Enterovirus A71)) for entry CCCCN1C(=N)[C@@H]([C@H](C[C@@H]2CCCNC2=O)NC(=O)[C@H](Cc2ccc(F)cc2)NC(=O)c2cc(C)on2)OC1=O is 2540

Reported Ki (Genome polyprotein (Enterovirus A71)) for entry Cc1cc(C(=O)N[C@@H](Cc2ccc(F)cc2)C(=O)N[C@@H](C[C@@H]2CCCNC2=O)[C@@H]2OC(=O)N(C)C2=N)no1 is 210

###

- Measurement protocol: Intrinsic clearance in human liver microsomes at 1 mg/ml in presence of NADPH regenerating system by HPLC analysis
- Assay type: ADME, microsome
- Protocol conditions: read-out: CLH
Reported microsomal CLint is given for each of the following compounds.
Value expressed in µL/min/mg; do not type the unit.

Solved cases below.
CCCN1C(=N)[C@@H]([C@H](C[C@@H]2CCCNC2=O)NC(=O)[C@H](Cc2ccc(F)cc2)NC(=O)c2cc(C)on2)OC1=O 17
Cc1cc(C(=O)N[C@@H](Cc2ccc(F)cc2)C(=O)N[C@@H](C[C@@H]2CCCNC2=O)[C@@H](O)C#N)no1 87

Consider the additional compound presented here.
Kindly note the recorded microsomal CLint for Cc1cc(C(=O)N[C@@H](Cc2ccc(F)cc2)C(=O)N[C@@H](C[C@@H]2CCCNC2=O)[C@H]2OC(=O)N(C(C)C)C2=N)no1 , which is 9
